The reported numbers originate from ChEMBL document CHEMBL1129258.

- Test target: DNA gyrase (Escherichia coli) (UniProt P0AES6+P0AES4)
- Assay: In vitro antibacterial activity against gram-positive organism Enterococcus faecium ATCC 8043
- Assay type: functional
Quantity: MIC (mg/L)

Some entries whose results are on file:
Entry Cc1c(N2CCC(N)C2)c(F)cn2c(=O)c(/C(O)=C/[N+](=O)[O-])cc(C3CC3)c12 (stereo not drawn) : reported MIC = ?
0.39

Entry `C[C@H]1C[C@H](N)CN1c1nc2c(-c3ccc(F)cc3F)cc(C(=O)O)c(=O)n2cc1F` : reported MIC = ?
0.78

Entry Cc1c(N2CCC(N)C2)c(F)cn2c(=O)c(C(=O)O)cc(C3CC3)c12 (stereo not drawn) : reported MIC = ?
0.02

Entry `Cc1c(N2CC[C@@H]([C@@H](C)N)C2)c(F)cn2c(=O)c(C(=O)O)cc(C3CC3)c12` : reported MIC = ?
0.01

Entry Cc1c(N2CCC(c3ccccn3)C2)c(F)cn2c(=O)c(C(=O)O)cc(C3CC3)c12 (stereo not drawn) : reported MIC = ?
0.05

(a) O=C(O)c1cc(C2CC2)c2nc(N3CCNCC3)c(F)cn2c1=O
(b) Cc1c(NCCN)c(F)cn2c(=O)c(C(=O)O)cc(C3CC3)c12
(c) Cc1c(N2CC[C@@]3(C[C@@H]3N)C2)c(F)cn2c(=O)c(C(=O)O)cc(C3CC3)c12
List by increasing MIC. Record the ranking as a list of labels in the requested order.
c, b, a
(c: 0.05 mg/L, b: 3.1 mg/L, a: 12.5 mg/L)

----------
molecules and their reported ED50
- Tested on: Streptococcus pneumoniae
- Assay: In vivo efficacy against Strep. administration
- Format: functional
Lab book: enter the figure in mg/kg, no units written.

Some entries whose results are on file:
Which ED50 is reported with Streptococcus pneumoniae for this entry: CC(NC1CCN(c2nc3c(-c4ccc(F)cc4F)cc(C(=O)O)c(=O)n3cc2F)C1)C(=O)O (stereo not drawn) ?
79.8

Which ED50 is reported with Streptococcus pneumoniae for this entry: Cc1c(N2CCC(O)C2)c(F)cn2c(=O)c(C(=O)O)cc(C3CC3)c12 (stereo not drawn) ?
41.5

Which ED50 is reported with Streptococcus pneumoniae for this entry: Cc1c(N2CCC(N(C)C)C2)c(F)cn2c(=O)c(C(=O)O)cc(C3CC3)c12 (stereo not drawn) ?
44.1

Which ED50 is reported with Streptococcus pneumoniae for this entry: CC(NC(=O)C(C)NC1CCN(c2nc3c(-c4ccc(F)cc4F)cc(C(=O)O)c(=O)n3cc2F)C1)C(=O)O (stereo not drawn) ?
49.7

Which ED50 is reported with Streptococcus pneumoniae for this entry: `Cc1c(N2C[C@@H](C)N[C@@H](C)C2)c(F)cn2c(=O)c(C(=O)O)cc(C3CC3)c12` ?
49.4

With those in mind, consider the next molecule.
Which ED50 is reported with Streptococcus pneumoniae for this entry: Cc1c(N2C[C@@H]3CCCN[C@@H]3C2)c(F)cn2c(=O)c(C(=O)O)cc(C3CC3)c12 (stereo in doubt; 45n) ?
12.5

----------
- Test target: DNA gyrase (Escherichia coli) (UniProt P0AES6+P0AES4)
- Assay: In vitro antibacterial activity against gram-positive organism Streptococcus bovis A-5169
- Assay type: functional
- Condition description: Streptococcus equinus
Quantity: MIC (µg/mL)

Some entries whose results are on file:
Entry `Cc1c(N2C[C@@H](C)N[C@@H](C)C2)c(F)cn2c(=O)c(C(=O)O)cc(C3CC3)c12` : reported MIC = ?
0.78

Entry `Cc1c(N2C[C@@H](N)C[C@@H]2C)c(F)cn2c(=O)c(C(=O)O)cc(C3CC3)c12` : reported MIC = ?
0.05

Entry `Cc1c(N(C)CCN)c(F)cn2c(=O)c(C(=O)O)cc(C3CC3)c12` : reported MIC = ?
12.5

(A) Cc1c(N2CC[C@H](N)C2)c(F)cn2c(=O)c(C(=O)O)cc(C3CC3)c12
(B) Cc1c(N2CC[C@@H]3CNC[C@@H]32)c(F)cn2c(=O)c(C(=O)O)cc(C3CC3)c12
// compare: A vs B , metric MIC, want the smaller Provide the label of your selected option as the answer.
A
(A: 0.02 µg/mL, B: 0.1 µg/mL)
